Measured quantity: melting point

// below: answered molecules
>>> recorded_value("CNC(=C[N+](=O)[O-])NN=Cc1ncc(C(F)(F)F)cc1Cl")
"171 °C (dec.)"
>>> recorded_value("CCOCCCOc1cc(C(F)(F)F)cc(NNC(=C[N+](=O)[O-])NC)n1")
"147 °C"
>>> recorded_value("NNC(=C[N+](=O)[O-])NN1CCOCC1")
"187 °C (dec.)"
>>> recorded_value("CNC(=C[N+](=O)[O-])NNc1ccc(C(F)(F)F)cc1")
"190 °C"
>>> recorded_value("NNC(=C[N+](=O)[O-])NCc1ccc(C(F)(F)F)cc1")
"162 °C"

State its melting point: "CNC(=C[N+](=O)[O-])NNc1ccc2ccccc2n1" 202 °C (dec.)

State its melting point: "CNC(=C[N+](=O)[O-])NNc1cc(C(F)(F)F)cc(OCCOC(C)C)n1" 167 °C (dec.)

State its melting point: "CNC(=C[N+](=O)[O-])NN=Cc1ccccc1" 159 to 160 °C

State its melting point: "Cc1cc(C)c(S(C)(=O)=O)c(NNC(=C[N+](=O)[O-])NS(C)(=O)=O)n1" 170 °C (dec.)

State its melting point: "CNC(=C[N+](=O)[O-])NNc1cc(C(F)(F)F)cc(OCCSC)n1" 94 °C

State its melting point: "CNC(=C[N+](=O)[O-])NNc1cc(C(F)(F)F)cc(OCCCc2ccccn2)n1" 169 °C (dec.)

State its melting point: "COc1ccccc1NC(=C[N+](=O)[O-])NN" 135.5 to 136 °C

State its melting point: "COc1ccc(NC(=C[N+](=O)[O-])NN)cc1" 195 °C (dec.)

State its melting point: "CNC(=C[N+](=O)[O-])NNc1ccc(C)cc1" 186 °C (dec.)

* * *

molecular target: human MMP-9 (gelatinase B) (Homo sapiens, UniProt P14780); construct: endogenous in cells; host or cells: HT1080 human fibrosarcoma cells (ATCC CCL-121), PMA-stimulated; enzyme purified from the culture supernatant; assay: Inhibition activity against human MMP-9 (gelatinase B), fluorescent peptide substrate; type: biochemical; details: compounds of the formula (I); 1st measurement; read-out: MMP-9 inhibition activities IC50, 1st
Sequence (P14780 107-707 limits assumed): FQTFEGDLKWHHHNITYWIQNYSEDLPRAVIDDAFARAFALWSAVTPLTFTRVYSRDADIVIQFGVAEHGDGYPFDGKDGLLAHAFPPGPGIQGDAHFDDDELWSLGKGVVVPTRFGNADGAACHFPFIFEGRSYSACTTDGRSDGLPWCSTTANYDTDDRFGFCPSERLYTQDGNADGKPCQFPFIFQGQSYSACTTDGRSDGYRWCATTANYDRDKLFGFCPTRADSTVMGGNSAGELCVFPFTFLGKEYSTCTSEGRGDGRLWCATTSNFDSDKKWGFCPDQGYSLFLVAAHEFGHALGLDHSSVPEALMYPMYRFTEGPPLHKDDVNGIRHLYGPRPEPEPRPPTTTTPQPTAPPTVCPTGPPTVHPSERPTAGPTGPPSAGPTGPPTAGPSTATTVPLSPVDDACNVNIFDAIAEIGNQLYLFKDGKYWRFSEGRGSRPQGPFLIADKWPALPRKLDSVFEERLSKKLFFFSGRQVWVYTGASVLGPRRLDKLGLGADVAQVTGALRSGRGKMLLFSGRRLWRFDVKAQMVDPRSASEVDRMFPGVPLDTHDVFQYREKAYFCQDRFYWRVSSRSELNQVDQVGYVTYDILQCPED
Measured quantity: log10(IC50) (log10 of the value in µM)
// units: µM (pre-log); metric: IC50; scale: log10

>>> recorded_value("Cc1ccc(NC(=C[N+](=O)[O-])NN)cc1")
1.31
>>> recorded_value("CNC(=C[N+](=O)[O-])NN=C(C)c1ccccn1")
1.49
>>> recorded_value("CCS(=O)(=O)NC(=C[N+](=O)[O-])NNc1cc(C(F)(F)F)cc(Cl)n1")
0.78

State its log10(IC50): "CNNC(=C[N+](=O)[O-])NC" 1.72

State its log10(IC50): "CNC(=C[N+](=O)[O-])NNc1cc(C(F)(F)F)cc(OCC2CC2)n1" 1.30

* * *

target: human MMP-9 (gelatinase B) (Homo sapiens); construct: endogenous in cells; host or cells: HT1080 human fibrosarcoma cells (ATCC CCL-121), PMA-stimulated; enzyme purified from the culture supernatant; experiment: Inhibition activity against human MMP-9 (gelatinase B), fluorescent peptide substrate; assay type: biochemical; details: compounds of the formula (I); average of 1st and 2nd (or single measurement); read-out: MMP-9 inhibition activities IC50, Average
// boundary case: IC50 equal to 8 µM maps to 0 (no); strictly smaller maps to 1 (yes)

>>> category_label("CNC(=C[N+](=O)[O-])NNc1cc(C(F)(F)F)cc(OCCCc2ccccn2)n1")
"0 (no)"
>>> category_label("CNC(=C[N+](=O)[O-])NNc1cc(C(F)(F)F)cc(C(F)(F)F)n1")
"0 (no)"

Quick check: IC50 of "CNC(=C[N+](=O)[O-])NNc1ncnc2c(C)csc12" under 8 µM? 1 (yes)

Quick check: IC50 of "CNC(=C[N+](=O)[O-])NNc1nc(OC)cc(OC)n1" under 8 µM? 0 (no)

Quick check: IC50 of "COc1ccc(NC(=C[N+](=O)[O-])NN)cc1" under 8 µM? 0 (no)

Quick check: IC50 of "CNC(=C[N+](=O)[O-])NNc1cc(C(F)(F)F)ccn1" under 8 µM? 1 (yes)

Quick check: IC50 of "CNC(=C[N+](=O)[O-])NNc1cc(C(F)(F)F)cc(OCc2cccnc2)n1" under 8 µM? 0 (no)

Quick check: IC50 of "COCCNC(=C[N+](=O)[O-])NNc1cc(C(F)(F)F)cc(Cl)n1" under 8 µM? 0 (no)

Quick check: IC50 of "CCOCCOc1cc(C(F)(F)F)cc(NNC(=C[N+](=O)[O-])NC)n1" under 8 µM? 1 (yes)
